Molecular target: LmxCLK1 (Leishmania mexicana, UniProt E9AMP2)
Sequence (E9AMP2 1-422): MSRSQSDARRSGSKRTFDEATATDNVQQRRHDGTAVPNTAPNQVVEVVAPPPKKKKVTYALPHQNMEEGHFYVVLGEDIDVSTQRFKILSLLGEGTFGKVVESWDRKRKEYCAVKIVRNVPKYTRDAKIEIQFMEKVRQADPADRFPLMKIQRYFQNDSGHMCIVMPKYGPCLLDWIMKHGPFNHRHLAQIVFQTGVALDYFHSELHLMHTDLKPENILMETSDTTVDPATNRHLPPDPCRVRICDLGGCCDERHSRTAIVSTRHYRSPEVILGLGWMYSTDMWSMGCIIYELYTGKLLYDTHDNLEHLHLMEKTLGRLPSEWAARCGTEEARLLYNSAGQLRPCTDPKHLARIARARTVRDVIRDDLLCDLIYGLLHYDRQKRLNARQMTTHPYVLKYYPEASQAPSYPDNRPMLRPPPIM
Test: biochemical
Assay type: binding
Details: DSF, 10 µM compound, 2 µM LmxCLK1, mean of two runs
Below, each entry is listed with its recorded ΔTm Average.

compound	system tested	readout unit	ΔTm Average
O=c1cc(N2CCOCC2)oc2c(-c3cccc4c3sc3ccccc34)cccc12 [NU7441 (KU-57788)]	LmxCLK1 (Leishmania mexicana, UniProt E9AMP2)	°C	-0.1
COc1cc2nccc(Oc3ccc(NC(=O)Nc4ccc(F)cc4F)c(F)c3)c2cc1OC [Ki8751]	LmxCLK1 (Leishmania mexicana, UniProt E9AMP2)	°C	-0.1
C=CS(=O)(=O)NC1CCN(C(=O)CNc2cc(I)c(Cl)cc2OC)CC1 [K-Ras(G12C) inhibitor 9]	LmxCLK1 (Leishmania mexicana, UniProt E9AMP2)	°C	-0.1
